Target: Zap-70 (Homo sapiens)
Construct: Kinases are expressed as either kinase domains or full length constructs; made in house
Sequence (P43403 1-619): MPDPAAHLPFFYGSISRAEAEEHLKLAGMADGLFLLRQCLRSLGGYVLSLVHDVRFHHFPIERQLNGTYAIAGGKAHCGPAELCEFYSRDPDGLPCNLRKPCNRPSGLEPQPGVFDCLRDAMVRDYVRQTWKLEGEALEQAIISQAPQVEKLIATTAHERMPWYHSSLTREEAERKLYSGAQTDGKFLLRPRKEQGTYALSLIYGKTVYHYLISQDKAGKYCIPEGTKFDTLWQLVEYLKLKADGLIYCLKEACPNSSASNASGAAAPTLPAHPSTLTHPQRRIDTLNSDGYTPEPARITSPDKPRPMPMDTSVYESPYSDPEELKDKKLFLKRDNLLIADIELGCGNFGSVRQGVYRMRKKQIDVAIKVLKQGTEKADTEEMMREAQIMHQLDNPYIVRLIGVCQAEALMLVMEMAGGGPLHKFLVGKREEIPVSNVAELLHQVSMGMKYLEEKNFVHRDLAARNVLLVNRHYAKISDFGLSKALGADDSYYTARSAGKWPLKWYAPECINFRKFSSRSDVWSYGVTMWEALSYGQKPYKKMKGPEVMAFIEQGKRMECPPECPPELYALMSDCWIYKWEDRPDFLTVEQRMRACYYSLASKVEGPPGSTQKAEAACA
Experiment: Kinase inhibition assay (33P transfer), Zap-70
Type: biochemical
Conditions: read-out: Zap-1
experimental-endpoint: IC50

Reported IC50 of COCCCNc1ncnc(N2CCCc3cc(C)ccc32)n1 [Compound 762] : > 14.4 µM

Reported IC50 of COc1cc(Nc2ncnc(Nc3ccc4c(c3)CCC4)n2)cc(OC)c1OC [Compound 629] : 6.1 to 8.9 µM

Reported IC50 of CC(C)(C)c1cc(Nc2ncnc(Nc3cccc(C(N)=O)c3)n2)[nH]n1 [Compound 500] : > 12.8 µM

Reported IC50 of COc1ccc(Nc2ncnc(-n3c(=O)[nH]c4ccccc43)n2)cc1OC [Compound 494] : > 12.4 µM

Reported IC50 of Cc1ccc2c(c1)CCCN2c1ncnc(Nc2ccc3c(c2)C(=O)OC3)n1 [Compound 763] : > 12.1 µM

Reported IC50 of O=C(O)Cc1cccc(Nc2ncnc(-n3c(NCc4ccccc4)nc4ccccc43)n2)c1 [Compound 531] : > 9.97 µM

Reported IC50 of Cc1ccc2c(c1)CCCN2c1ncnc(Nc2ccc3ncsc3c2)n1 [Compound 773] : > 12 µM

Reported IC50 of O=c1[nH]c2ccccc2n1-c1ncnc(Nc2ccc3ncccc3c2)n1 [Compound 687] : > 12.7 µM

Reported IC50 of CC(C)(C)c1cc(Nc2ncnc(Nc3cccc(CO)c3)n2)[nH]n1 [Compound 499] : > 13.3 µM

Reported IC50 of COc1cc(Nc2ncnc(Nc3cccc(NC(=O)O[C@@H]4CCOC4)c3)n2)cc(OC)c1OC [Compound 694] : > 9.33 µM

Reported IC50 of NC(=O)Cc1cccc(Nc2ncnc(-n3c(N)nc4ccccc43)n2)c1 [Compound 955] : > 12.5 µM

Reported IC50 of Cc1ccc2c(c1)CCCN2c1ncnc(NCCCn2ccnc2)n1 [Compound 772] : > 12.9 µM

Reported IC50 of CNS(=O)(=O)Cc1ccc(Nc2ncnc(Nc3ccc4c(cnn4Cc4ccccc4)c3)n2)cc1 [Compound 736] : 0.799 to 4.79 µM

Reported IC50 of Cc1ccc2c(c1)CCCN2c1ncnc(NCc2cccnc2)n1 [Compound 777] : > 13.5 µM

Reported IC50 of Cc1ccc2c(c1)CCCN2c1ncnc(NCC2CCCO2)n1 (stereo not drawn) [Compound 759] : > 13.8 µM

Reported IC50 of O=c1[nH]c2ccccc2n1-c1ncnc(Nc2cccc3ncccc23)n1 [Compound 686] : > 12.7 µM

Reported IC50 of Clc1cccc(Nc2ncnc(Nc3cc(-c4ccccc4)n[nH]3)n2)c1 [Compound 1009] : > 12.4 µM

Reported IC50 of COc1cc(Nc2ncnc(-n3c(NCc4ccc(Cl)cc4C)nc4ccccc43)n2)cc(OC)c1OC [Compound 597] : > 8.46 µM
